Organism: Mus musculus
Assay: Cytotoxicity against Balb/c mouse T cells assessed as decrease in cell viability at 10 uM after 48 hrs by MTT assay
Format: toxicity, cell-based

{"Smiles text": "CC(=O)Oc1cc(C)c2c(c1C)C[C@H]([C@@H](C)C(=O)O)CC2", "Activity": "Toxic"}
{"Smiles text": "CCCCn1cc(COC(=O)[C@H](C)[C@@H]2CCc3c(C)cc(OC(C)=O)c(C)c3C2)nn1", "Activity": "Toxic"}
{"Smiles text": "CC(=O)Oc1cc(C)c2c(c1C)C[C@H]([C@@H](C)C(=O)OCc1cn(-c3ccc(CC#N)cc3)nn1)CC2", "Activity": "Toxic"}

---

Organism: Mus musculus
Test: Cytotoxicity against Balb/c mouse T cells assessed as decrease in cell viability at 10 uM after 48 hrs by MTT assay
Format: toxicity, cell-based
Measured attribute: Activity

{"Smiles text": "CC(=O)Oc1cc(C)c2c(c1C)C[C@H]([C@@H](C)C(=O)OCc1cn(-c3ccccc3CO)nn1)CC2", "Measured attribute": "Activity", "Result": "Toxic"}
{"Smiles text": "CC(=O)Oc1cc(C)c2c(c1C)C[C@H]([C@@H](C)C(=O)OCc1cn(-c3ccc(C(=O)c4ccccc4)cc3)nn1)CC2", "Measured attribute": "Activity", "Result": "Toxic"}
{"Smiles text": "CC(=O)Oc1cc(C)c2c(c1C)C[C@H]([C@@H](C)C(=O)OCc1cn(-c3ccc(O)cc3)nn1)CC2", "Measured attribute": "Activity", "Result": "Toxic"}
{"Smiles text": "CC(=O)Oc1cc(C)c2c(c1C)C[C@H]([C@@H](C)C(=O)OCc1cn(Cc3ccccc3)nn1)CC2", "Measured attribute": "Activity", "Result": "Non-Toxic"}
{"Smiles text": "CC(=O)Oc1cc(C)c2c(c1C)[C@@H]1OC(=O)[C@@H](C)[C@@H]1CC2", "Measured attribute": "Activity", "Result": "Toxic"}
{"Smiles text": "CCCCCn1cc(COC(=O)[C@H](C)[C@@H]2CCc3c(C)cc(OC(C)=O)c(C)c3C2)nn1", "Measured attribute": "Activity", "Result": "Toxic"}
{"Smiles text": "CC(=O)Oc1cc(C)c2c(c1C)C[C@H]([C@@H](C)C(=O)OCc1cn(-c3ccc(NC(=O)c4ccccc4)cc3)nn1)CC2", "Measured attribute": "Activity", "Result": "Toxic"}
{"Smiles text": "CC(=O)Oc1cc(C)c2c(c1C)C[C@H]([C@@H](C)C(=O)OCc1cn(-c3ccccc3F)nn1)CC2", "Measured attribute": "Activity", "Result": "Non-Toxic"}
{"Smiles text": "CC(=O)Oc1cc(C)c2c(c1C)C[C@H]([C@@H](C)C(=O)OCc1cn(-c3ccc4c(c3)OCO4)nn1)CC2", "Measured attribute": "Activity", "Result": "Toxic"}
{"Smiles text": "CC(=O)Oc1cc(C)c2c(c1C)C[C@H]([C@@H](C)C(=O)OCc1cn(-c3cccc([N+](=O)[O-])c3)nn1)CC2", "Measured attribute": "Activity", "Result": "Toxic"}
{"Smiles text": "CC(=O)Oc1cc(C)c2c(c1C)C[C@H]([C@@H](C)C(=O)OCc1cn(-c3cccnc3Cl)nn1)CC2", "Measured attribute": "Activity", "Result": "Toxic"}
{"Smiles text": "COc1ccc(-n2cc(COC(=O)[C@H](C)[C@@H]3CCc4c(C)cc(OC(C)=O)c(C)c4C3)nn2)cc1", "Measured attribute": "Activity", "Result": "Non-Toxic"}
{"Smiles text": "CC(=O)Oc1cc(C)c2c(c1C)C[C@H]([C@@H](C)C(=O)OCc1cn(-c3ccccc3Cl)nn1)CC2", "Measured attribute": "Activity", "Result": "Toxic"}
{"Smiles text": "CC(=O)Nc1ccc(-n2cc(COC(=O)[C@H](C)[C@@H]3CCc4c(C)cc(OC(C)=O)c(C)c4C3)nn2)cc1", "Measured attribute": "Activity", "Result": "Toxic"}
{"Smiles text": "CC(=O)Oc1cc(C)c2c(c1C)C[C@H]([C@@H](C)C(=O)OCc1cn(-c3ccc(C#N)cc3)nn1)CC2", "Measured attribute": "Activity", "Result": "Toxic"}
{"Smiles text": "CC(=O)Oc1cc(C)c2c(c1C)C[C@H]([C@@H](C)C(=O)OCc1cn(-c3ccc(Cl)c(Cl)c3)nn1)CC2", "Measured attribute": "Activity", "Result": "Toxic"}
{"Smiles text": "COc1cc(-n2cc(COC(=O)[C@H](C)[C@@H]3CCc4c(C)cc(OC(C)=O)c(C)c4C3)nn2)cc(OC)c1OC", "Measured attribute": "Activity", "Result": "Toxic"}
{"Smiles text": "CC1=C2[C@H]3OC(=O)[C@@H](C)[C@@H]3CC[C@@]2(C)C=CC1=O", "Measured attribute": "Activity", "Result": "Non-Toxic"}
{"Smiles text": "CC(=O)Oc1cc(C)c2c(c1C)C[C@H]([C@@H](C)C(=O)OCc1cn(-c3ccc(Cl)cc3)nn1)CC2", "Measured attribute": "Activity", "Result": "Non-Toxic"}
{"Smiles text": "CC(=O)Oc1cc(C)c2c(c1C)C[C@H]([C@@H](C)C(=O)OCc1cn(-c3cccc(C#N)c3)nn1)CC2", "Measured attribute": "Activity", "Result": "Non-Toxic"}
{"Smiles text": "CC(=O)Oc1cc(C)c2c(c1C)C[C@H]([C@@H](C)C(=O)OCc1cn(-c3ccc(O)cc3C)nn1)CC2", "Measured attribute": "Activity", "Result": "Non-Toxic"}
{"Smiles text": "CC(=O)Oc1cc(C)c2c(c1C)C[C@H]([C@@H](C)C(=O)OCc1cn(-c3ccc(CO)cc3)nn1)CC2", "Measured attribute": "Activity", "Result": "Toxic"}
{"Smiles text": "CC(=O)Oc1cc(C)c2c(c1C)C[C@H]([C@@H](C)C(=O)OCc1cn(-c3ccc(Cl)nc3)nn1)CC2", "Measured attribute": "Activity", "Result": "Toxic"}
{"Smiles text": "CC(=O)Oc1cc(C)c2c(c1C)C[C@H]([C@@H](C)C(=O)OCc1cn(-c3cc(I)ccc3C)nn1)CC2", "Measured attribute": "Activity", "Result": "Toxic"}
{"Smiles text": "CC(=O)Oc1cc(C)c2c(c1C)C[C@H]([C@@H](C)C(=O)OCc1cn(Cc3ccc(Br)cc3)nn1)CC2", "Measured attribute": "Activity", "Result": "Toxic"}
{"Smiles text": "CC(=O)Oc1cc(C)c2c(c1C)C[C@H]([C@@H](C)C(=O)OCc1cn(-c3ccccc3C#N)nn1)CC2", "Measured attribute": "Activity", "Result": "Toxic"}
{"Smiles text": "C#CCOC(=O)[C@H](C)[C@@H]1CCc2c(C)cc(OC(C)=O)c(C)c2C1", "Measured attribute": "Activity", "Result": "Toxic"}

Where do the numbers come from? From ChEMBL document CHEMBL3853300.
